Target: T1, Band 3 / glycophorin A (Wright b, Wrb epitope) on human red blood cells (human, UniProt P02724 20-150)
T1 construct: whole, on cells; also called Band3/GPA; AE1
T1 sequence 1: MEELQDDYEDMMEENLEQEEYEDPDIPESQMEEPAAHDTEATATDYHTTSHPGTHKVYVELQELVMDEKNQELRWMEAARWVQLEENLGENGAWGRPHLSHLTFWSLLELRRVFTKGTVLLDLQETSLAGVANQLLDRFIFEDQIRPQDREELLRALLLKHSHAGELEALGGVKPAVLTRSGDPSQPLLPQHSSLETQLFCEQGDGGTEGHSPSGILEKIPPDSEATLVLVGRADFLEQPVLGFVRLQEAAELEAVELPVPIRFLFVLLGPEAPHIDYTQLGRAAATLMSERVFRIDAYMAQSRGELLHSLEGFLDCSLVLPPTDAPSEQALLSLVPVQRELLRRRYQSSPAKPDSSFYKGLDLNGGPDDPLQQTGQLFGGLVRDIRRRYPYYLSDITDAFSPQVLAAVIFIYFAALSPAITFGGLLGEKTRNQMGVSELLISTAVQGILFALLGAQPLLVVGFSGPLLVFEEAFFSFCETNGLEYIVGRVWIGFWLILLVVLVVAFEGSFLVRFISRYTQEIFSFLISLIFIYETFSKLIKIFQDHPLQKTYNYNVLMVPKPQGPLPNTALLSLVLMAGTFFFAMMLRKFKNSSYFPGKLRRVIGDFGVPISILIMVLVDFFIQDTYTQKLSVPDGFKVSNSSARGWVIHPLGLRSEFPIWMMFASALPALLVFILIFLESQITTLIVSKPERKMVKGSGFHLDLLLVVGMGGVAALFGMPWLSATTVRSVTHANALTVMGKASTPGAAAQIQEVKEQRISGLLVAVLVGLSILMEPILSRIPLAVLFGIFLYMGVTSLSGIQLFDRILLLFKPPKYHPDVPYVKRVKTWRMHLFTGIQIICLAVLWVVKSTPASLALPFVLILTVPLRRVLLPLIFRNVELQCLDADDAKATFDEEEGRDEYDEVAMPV
T1 sequence 2: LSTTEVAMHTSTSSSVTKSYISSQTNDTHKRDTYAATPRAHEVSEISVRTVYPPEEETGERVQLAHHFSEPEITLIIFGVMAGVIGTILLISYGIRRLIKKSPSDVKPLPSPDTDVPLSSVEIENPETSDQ
Experiment: Fab/phage binding assays on human RBCs incl. rare RBC types lacking conserved antigens
METRIC: binding result

INSERT INTO measurements (binder, metric, val) VALUES
  ('KP3-12 Fab/phage clone (anti-Band 3, Wrb) (Fab, V domains shown) VH: EVQLLESGPGLVKPSETLSLTCAVSGNSISSAYGWHWIRQVPGKGLEWIGSIGGSRGTTNYNPSLKSRGTISEDTSKNQFSLRLRSVSAADTAVYFCARDSGYSFRYFDFWGRGVLVTVSS VL: AAELTQSPATLSLAPGETATLSCRASQSIGTNLAWYHQKPGQPPKLLVHSAYVRATGIPNRFSGSGSRTDFTLTINSLQPEDVGVYHCQQYNDLLPLTFGGGTKIDIK', 'binding result', 'binds');
